# assay-details: yeast display, Sf9 membrane polyspecificity reagent, FACS + sequencing; frameworks hold sequencing errors
observable: polyreactivity (PSR sort gate)

Would you please look over these solved cases?
INSERT INTO measurements (sequence_input, observable, result) VALUES
  ('QVQLVESGGGLVQAGGSLRLSCAASGIIFARYAMGWYRQAPGKERELVAVISGSGGSTYYADSVKGRFTISRDNAKNTVYLQMNSLKPEDTAVYYCNAEFESGHDLDWYDYWGQGTQVTVSS', 'polyreactivity (PSR sort gate)', 'low polyreactivity'),
  ('QVQLVESGGGLVQAGGSLRLSCAASGRIFSLNAMGWYRQAPGKERELVAGIRKRGGSTYYADSVKGRFTISRDNAKNTVYLQMNSLKPEDTAVYYCAAQPALTYRFYYWGQGTQVTVSS', 'polyreactivity (PSR sort gate)', 'high polyreactivity'),
  ('QVQLVESGVCIVQAGGSLRLSGADSGNTLIQYAMRWYRQPHGKERELVAGISGSDDSTYYADSVKGRFTISRDNAKNTVYLQMNSLKPEDTAVYYCAALSISPSRTGYYWGQGTQVTVSS', 'polyreactivity (PSR sort gate)', 'low polyreactivity'),
  ('QVQLVESGGGLVQAGGSLRLSCAASGRIFYYNPMGWYRQAPAKERELVAAISWDGGSTYYADSVKGRFTISRDNAKNTFYLEMNCLKAEDTAVYYCAVDLYGTWYPTWFNYWGQGTQVTVSS', 'polyreactivity (PSR sort gate)', 'low polyreactivity');

Tell me the measured polyreactivity (PSR sort gate) of `QVQLVESGGGLVQAGGSLRLSCAASGFIFGIYAMGWYRQAPGKERELVARISRSGVSTYYADSVKGRFTISRDNAKNTVYLQMNSLKPEDTAVYYCNAYRGGLSSEHYYWGQGTQVTVSS` , please.
high polyreactivity

---

# assay-details: yeast display, Sf9 membrane polyspecificity reagent, FACS + sequencing; frameworks hold sequencing errors
observable: polyreactivity (PSR sort gate)

Would you please look over these solved cases?
INSERT INTO assay_data (sequence_input, observable, result) VALUES
  ('QVQLVESGGGLVQAGGSLRLSCAASGITFYSYAMGWYRQAPGKEMELVAAITRSGGSTYYADSVKGRFTISRDNAKNTVYLQMISLKPEDTAVYYCAAEEGRVFSGGYEYWGQGTQVTVSS', 'polyreactivity (PSR sort gate)', 'high polyreactivity'),
  ('QVQLVESGGGLVQAGGSLRLSCAASGRIFGRYAMGWYRQAPGKEREFVAAISWRGGTTYYADSVKGRFTISRDNAKNTVYLQMNSLKPEDTAVYYCNARYQTGGYGYWGQGTQVTVSS', 'polyreactivity (PSR sort gate)', 'high polyreactivity'),
  ('QVQLVESGGGLVQAGGSLRLSCAASGHTLGSYAMGWYRQAPGKERELVAAISSRGGTYYADSVKGRFTISRDNAKNTGYFLMNSLKPDDTAVYYWDAVSGSSKMYYWGQGTQVTVSS', 'polyreactivity (PSR sort gate)', 'high polyreactivity'),
  ('QVQLVESGGGLVQAGGSLRLSCAASGSIFPSNAMGWYRQAPGKERELVATIGRGGTTNYADSVKGRFTISRDNAKNTVYLQMNSLKPEDTAVYYCNAERIWRYKYGYDYWGQGTQVTVSS', 'polyreactivity (PSR sort gate)', 'high polyreactivity'),
  ('QVQLEESGGGLVQAGGSLRLSCAASGSTFESYAMGWYRQAPGKERELVAAISWRVGSTYYADSVKGRFTISRDNAKNTFYLQMNILKPEDTAVYYCASKGWYSHYGGYDYWGQGTQVTVSS', 'polyreactivity (PSR sort gate)', 'low polyreactivity'),
  ('QVQLVESGGGLVQAGGSLRLSCAASGRIFYRNAMGWYRQSPGKERELVAAINWSGGSTYYAYSVKGRFTISRDNAKNTVYLQMNSLKPEDTAVYYCATGYRQGEYDYWGQGTQVTLSS', 'polyreactivity (PSR sort gate)', 'low polyreactivity');

// switching to the query sequence
Tell me the measured polyreactivity (PSR sort gate) of `QVQLVESGGGLVQAGGSLRLSCAASGFIFGPYTMGWYRQAPGKERELVAAINNSGSTNYADSVKGRFTISRDNAKNTVYLQMNCLKPEDTAVYFCAAEPIIFVRYDYWGQGTQVTVSS` , please.
low polyreactivity
